test system: U251; experiment: NCI60 five-dose screen, CNS Cancer; type: cell-based; conditions: Homo sapiens, U-251; U251, CNS Cancer; five-dose screen; read-out: GI50
reported-metric: GI50 (µM)
Value expressed in µM; do not type the unit.

Requested field: GI50. Item: CCC12C=CCN3CCC4(c5cc(NC(=O)CN6CCN(c7ccc(C(F)(F)F)cc7)CC6)c(OC)cc5N(C)C4C(O)(C(=O)OC)C1OC(C)=O)C32 (centres unmarked)
6.03

Repeat with CC[C@]12C=CCN3CC[C@@]4(c5ccc(OC)cc5N(C)[C@H]4[C@@](O)(C(=O)OC)[C@@H]1OC(=O)CCC(=O)N1CCN(C(c4ccc(F)cc4)c4ccc(F)cc4)CC1)[C@@H]32
2.78

Repeat with CC[C@]12C=CCN3CC[C@@]4(c5ccc(OC)cc5N(C)[C@H]4[C@@](O)(C(=O)OC)[C@@H]1OC(=O)CCCN1CCN(Cc4ccc(F)cc4)CC1)[C@@H]32
7.59

Repeat with CCC12C=CCN3CCC4(c5cc(NC(=O)CN6CCN(C(c7ccc(F)cc7)c7ccc(F)cc7)CC6)c(OC)cc5N(C)C4C(O)(C(=O)OC)C1OC(C)=O)C32 (centres unmarked)
6.03

Repeat with CC[C@]12C=CCN3CC[C@@]4(c5ccc(OC)cc5N(C)[C@H]4[C@@](O)(C(=O)OC)[C@@H]1OC(=O)CCC(=O)N1CCN(c4ccc(C(F)(F)F)cc4)CC1)[C@@H]32
3.31

###

test system: MDA-MB-231/ATCC; assay: NCI60 one-dose screen (10 μM), Breast Cancer; assay type: cell-based, human; conditions: Homo sapiens; 10 μM; MDA-MB-231/ATCC, Breast Cancer; read-out: Growth percent rate
Field: activity at 10 µM. Provide a value for each of the compounds that follow.
Quick note: unit goes after the number.

Requested field: activity at 10 µM. Item: CC[C@]12C=CCN3CC[C@@]4(c5ccc(OC)cc5N(C)[C@H]4[C@@](O)(C(=O)OC)[C@@H]1OC(=O)CCC(=O)N1CCN(Cc4ccc(F)cc4)CC1)[C@@H]32
65.3%

Repeat with CC[C@]12C=CCN3CC[C@@]4(c5ccc(OC)cc5N(C)[C@H]4[C@@](O)(C(=O)OC)[C@@H]1OC(=O)CCC(=O)N1CCN(c4ccc(C(F)(F)F)cc4)CC1)[C@@H]32
-47%

Repeat with CCC12C=CCN3CCC4(c5cc(NC(=O)CN6CCN(c7ccc(C(F)(F)F)cc7)CC6)c(OC)cc5N(C)C4C(O)(C(=O)OC)C1OC(C)=O)C32 (stereo not shown)
-86.2%

Repeat with CCC12C=CCN3CCC4(c5cc(NC(=O)CN6CCN(C(=O)c7ccco7)CC6)c(OC)cc5N(C)C4C(O)(C(=O)OC)C1OC(C)=O)C32 (stereo not shown)
98.8%

Repeat with CC[C@]12C=CCN3CC[C@@]4(c5ccc(OC)cc5N(C)[C@H]4[C@@](O)(C(=O)OC)[C@@H]1OC(=O)CCCN1CCN(Cc4ccc(C(F)(F)F)cc4)CC1)[C@@H]32
-94.4%

Repeat with CC[C@]12C=CCN3CC[C@@]4(c5ccc(OC)cc5N(C)[C@H]4[C@@](O)(C(=O)OC)[C@@H]1OC(=O)CCCN1CCN(Cc4ccc(F)cc4)CC1)[C@@H]32
51.5%

Repeat with CCC12C=CCN3CCC4(c5ccc(OC)cc5N(C)C4C(O)(C(=O)OC)C1OC(=O)CCCBr)C32 (stereo not shown)
90.6%

###

test system: MOLT-4; experiment: NCI60 one-dose screen (10 μM), Leukemia; format: cell-based, human; details: Homo sapiens; 10 μM; MOLT-4, Leukemia; read-out: Growth percent rate
Field: label. Allowed values: T (activity at 10 µM < -30%) or F (activity at 10 µM >= -30%).

Please determine if CC[C@]12C=CCN3CC[C@@]4(c5ccc(OC)cc5N(C)[C@H]4[C@@](O)(C(=O)OC)[C@@H]1OC(=O)CCCN1CCN(Cc4ccc(F)cc4)CC1)[C@@H]32 is below -30% in terms of activity at 10 µM.
F

Repeat with CCC12C=CCN3CCC4(c5cc(NC(=O)CCl)c(OC)cc5N(C)C4C(O)(C(=O)OC)C1OC(C)=O)C32 (centres unmarked)
F

Repeat with CCC12C=CCN3CCC4(c5cc(NC(=O)CN6CCN(C)CC6)c(OC)cc5N(C)C4C(O)(C(=O)OC)C1OC(C)=O)C32 (centres unmarked)
F

Repeat with CC[C@]12C=CCN3CC[C@@]4(c5ccc(OC)cc5N(C)[C@H]4[C@@](O)(C(=O)OC)[C@@H]1OC(=O)CCCN1CCN(Cc4ccc(C(F)(F)F)cc4)CC1)[C@@H]32
T

Repeat with CC[C@]12C=CCN3CC[C@@]4(c5ccc(OC)cc5N(C)[C@H]4[C@@](O)(C(=O)OC)[C@@H]1OC(=O)CCC(=O)N1CCN(C)CC1)[C@@H]32
F

###

tested on: UACC-257; assay: NCI60 one-dose screen (10 μM), Melanoma; format: cell-based; details: Homo sapiens, UACC-257, read-out: Growth percent rate
reported-metric: activity at 10 µM

Form entry - test system: UACC-257; read-out: activity at 10 µM; molecule: CC[C@]12C=CCN3CC[C@@]4(c5ccc(OC)cc5N(C)[C@H]4[C@@](O)(C(=O)OC)[C@@H]1OC(=O)CCCN1CCN(C(c4ccc(F)cc4)c4ccc(F)cc4)CC1)[C@@H]32
-78.2%

Repeat with CCC12C=CCN3CC[C@@]4(c5ccc(OC)cc5N(C)[C@H]4[C@@](O)(C(=O)OC)[C@@H]1OC(C)=O)[C@@H]32 (stereo partly drawn)
95.8%

Repeat with CC[C@]12C=CCN3CC[C@@]4(c5ccc(OC)cc5N(C)[C@H]4[C@@](O)(C(=O)OC)[C@@H]1OC(=O)CCC(=O)N1CCN(C(=O)c4ccco4)CC1)[C@@H]32
61.7%

Repeat with CCC12C=CCN3CCC4(c5cc(NC(=O)CN6CCN(Cc7ccc(C(F)(F)F)cc7)CC6)c(OC)cc5N(C)C4C(O)(C(=O)OC)C1OC(C)=O)C32 (stereo not drawn)
80.6%

Repeat with CCC12C=CCN3CCC4(c5ccc(OC)cc5N(C)C4C(O)(C(=O)OC)C1O)C32 (stereo not drawn)
96.7%

Repeat with CCC12C=CCN3CCC4(c5cc(NC(=O)CN6CCN(Cc7ccc(F)cc7)CC6)c(OC)cc5N(C)C4C(O)(C(=O)OC)C1OC(C)=O)C32 (stereo not drawn)
98.4%

###

test system: OVCAR-5; experiment: NCI60 one-dose screen (10 μM), Ovarian Cancer; format: cell-based; settings: Homo sapiens, OVCAR-5, read-out: Growth percent rate
Field: activity at 10 µM. Provide a value for each of the compounds that follow.
Value expressed in %; do not type the unit.

Form entry - test system: OVCAR-5; read-out: activity at 10 µM; compound: CCC12C=CCN3CCC4(c5cc(NC(=O)CN6CCN(Cc7ccc(C(F)(F)F)cc7)CC6)c(OC)cc5N(C)C4C(O)(C(=O)OC)C1OC(C)=O)C32 (stereo not drawn) [Compound 18]
108

Repeat with CCC12C=CCN3CC[C@@]4(c5ccc(OC)cc5N(C)[C@H]4[C@@](O)(C(=O)OC)[C@@H]1OC(C)=O)[C@@H]32 (stereo partly drawn) [Compound 1, vindoline]
107

Repeat with CC[C@]12C=CCN3CC[C@@]4(c5ccc(OC)cc5N(C)[C@H]4[C@@](O)(C(=O)OC)[C@@H]1OC(=O)CCCN1CCN(C(c4ccc(F)cc4)c4ccc(F)cc4)CC1)[C@@H]32 [Compound 25]
-92

Repeat with CC[C@]12C=CCN3CC[C@@]4(c5ccc(OC)cc5N(C)[C@H]4[C@@](O)(C(=O)OC)[C@@H]1OC(=O)CCC(=O)N1CCN(C(=O)c4ccco4)CC1)[C@@H]32 [Compound 32]
105

Repeat with CCC12C=CCN3CCC4(c5cc(NC(=O)CN6CCN(Cc7ccc(F)cc7)CC6)c(OC)cc5N(C)C4C(O)(C(=O)OC)C1OC(C)=O)C32 (stereo not drawn) [Compound 19]
111

Repeat with CCC12C=CCN3CCC4(c5ccc(OC)cc5N(C)C4C(O)(C(=O)OC)C1O)C32 (stereo not drawn) [Compound 13, 17-desacetylvindoline]
91.2

###

Field: activity at 10 µM. Provide a value for each of the compounds that follow.
test system: HCT-15; experiment: NCI60 one-dose screen (10 μM), Colon Cancer; format: cell-based; details: Homo sapiens; 10 μM; HCT-15, Colon Cancer; read-out: Growth percent rate
Value expressed in %; do not type the unit.

Requested field: activity at 10 µM. Item: CC[C@]12C=CCN3CC[C@@]4(c5ccc(OC)cc5N(C)[C@H]4[C@@](O)(C(=O)OC)[C@@H]1OC(=O)CCC(=O)N1CCN(C)CC1)[C@@H]32
103

Repeat with CCC12C=CCN3CCC4(c5cc(NC(=O)CCl)c(OC)cc5N(C)C4C(O)(C(=O)OC)C1OC(C)=O)C32 (stereo not drawn)
50.1

Repeat with CCC12C=CCN3CCC4(c5ccc(OC)cc5N(C)C4C(O)(C(=O)OC)C1OC(=O)CCC(=O)O)C32 (stereo not drawn)
98.4

Repeat with CC[C@]12C=CCN3CC[C@@]4(c5ccc(OC)cc5N(C)[C@H]4[C@@](O)(C(=O)OC)[C@@H]1OC(=O)CCCN1CCN(c4ccc(C(F)(F)F)cc4)CC1)[C@@H]32
-82.9

Repeat with CCC12C=CCN3CCC4(c5cc(NC(=O)CN6CCN(C(c7ccc(F)cc7)c7ccc(F)cc7)CC6)c(OC)cc5N(C)C4C(O)(C(=O)OC)C1OC(C)=O)C32 (stereo not drawn)
18.3

Repeat with CC[C@]12C=CCN3CC[C@@]4(c5ccc(OC)cc5N(C)[C@H]4[C@@](O)(C(=O)OC)[C@@H]1OC(=O)CCCN1CCN(Cc4ccc(C(F)(F)F)cc4)CC1)[C@@H]32
-68.1
